- measurementConditions: in acetonitrile, 278.15 K
reportedEndpoint: solubility (mole fraction)
// no unit, no text: just the number

The reported solubility (mole fraction) of the compound `N[C@@H](Cc1c[nH]c2ccccc12)C(=O)O` was 1e-05

###

- measurementConditions: in methanol, 303.15 K
reportedEndpoint: solubility (mole fraction)
Lab note: record the figure alone, no unit after it.

Entry `N[C@@H](Cc1c[nH]c2ccccc12)C(=O)O` ; solubility (mole fraction) = 0.00102

###

- measurementConditions: in ethanol, 283.15 K
reportedEndpoint: solubility (mole fraction)

solubility (mole fraction) reported for this molecule `N[C@@H](Cc1c[nH]c2ccccc12)C(=O)O` : 0.00013

###

- measurementConditions: in isopropanol, 303.15 K
reportedEndpoint: solubility (mole fraction)

Documented solubility (mole fraction) of `N[C@@H](Cc1c[nH]c2ccccc12)C(=O)O` : 0.00021

###

- measurementConditions: in ethyl acetate, 303.15 K
reportedEndpoint: solubility (mole fraction)
Answer with a bare number; do not write a unit.

Sample `N[C@@H](Cc1c[nH]c2ccccc12)C(=O)O` ; solubility (mole fraction) observed: 0.00014

###

- measurementConditions: in water, 278.15 K
reportedEndpoint: solubility (mole fraction)

Consider `N[C@@H](Cc1c[nH]c2ccccc12)C(=O)O` . Its measured solubility (mole fraction) is 0.00098

###

- measurementConditions: in isopropanol, 318.15 K
reportedEndpoint: solubility (mole fraction)
Kindly provide the number alone.

The compound listed as `N[C@@H](Cc1c[nH]c2ccccc12)C(=O)O` has a reported solubility (mole fraction) of 0.00033

###

- measurementConditions: in water, 308.15 K
reportedEndpoint: solubility (mole fraction)
Respond with the number and no other words.

// sample `N[C@@H](Cc1c[nH]c2ccccc12)C(=O)O` , its solubility (mole fraction) was 0.00174
